Hello, the source for this data is patent EP1976513B1, in case you need it.

In this section, each of the compounds is paired with its reported IC50.
molecular target: human serotonin reuptake transporter (Homo sapiens); assay: cell-based; conditions: recombinant human serotonin transporter (SERT); read-out: Human IC50 (nM) hSERT
Counter-ions that a name gives are not always drawn.
Give the value, in units of nM, as a plain number.

Guide cases for IC50, answers given:
COC1CCC(CN(C)C)(c2ccc(Cl)c(Cl)c2)CC1 (centres unmarked) [Compound 256] ... 69
NCC1(c2ccc3ccccc3c2)CCC(O)(CF)CC1 (centres unmarked) [Compound 218] ... 480
NCC1(c2ccc(F)c(F)c2)CCCCC1 [Compound 30, hydrochloride] ... 4520
CNCC1(c2ccc(OC(F)(F)F)cc2)CCC(C)(O)CC1 (centres unmarked) [Compound 247] ... 707
CN(C)CC1(c2ccc3ccccc3c2)CCC(F)CC1 (centres unmarked) [Compound 233] ... 37

GET /value?item= CN(C)CC1(c2ccc3cc(F)ccc3c2)CCCCC1 [Compound 68] &field=IC50 returns 19

GET /value?item= CNCC1(c2ccccc2)CCCCC1 [Compound 80, (hydrochloride)] &field=IC50 returns 9170

GET /value?item= Clc1ccc(C2(C3CCCN3)CCCCC2)cc1Cl (centres unmarked) [Compound 296] &field=IC50 returns 73

GET /value?item= CC(N)C1(c2ccc(-c3ccco3)cc2)CCCCC1 (centres unmarked) [Compound 22] &field=IC50 returns 296

* * *

molecular target: DA Transporter (DAT) Sites in Mouse Brain (Mus musculus, UniProt Q61327); construct: Striatum was used to determine occupancy of DA transporter sites; from tissue; host or cells: C57BL/6 mouse striatum homogenate; assay: Ex vivo [3H] WIN 35428 binding after oral dosing; design: species or system C57BL/6 mice; details: 1 mg/kg, mice sacrificed 60 minutes after treatment, striatum
Sequence (Q61327 whole entry): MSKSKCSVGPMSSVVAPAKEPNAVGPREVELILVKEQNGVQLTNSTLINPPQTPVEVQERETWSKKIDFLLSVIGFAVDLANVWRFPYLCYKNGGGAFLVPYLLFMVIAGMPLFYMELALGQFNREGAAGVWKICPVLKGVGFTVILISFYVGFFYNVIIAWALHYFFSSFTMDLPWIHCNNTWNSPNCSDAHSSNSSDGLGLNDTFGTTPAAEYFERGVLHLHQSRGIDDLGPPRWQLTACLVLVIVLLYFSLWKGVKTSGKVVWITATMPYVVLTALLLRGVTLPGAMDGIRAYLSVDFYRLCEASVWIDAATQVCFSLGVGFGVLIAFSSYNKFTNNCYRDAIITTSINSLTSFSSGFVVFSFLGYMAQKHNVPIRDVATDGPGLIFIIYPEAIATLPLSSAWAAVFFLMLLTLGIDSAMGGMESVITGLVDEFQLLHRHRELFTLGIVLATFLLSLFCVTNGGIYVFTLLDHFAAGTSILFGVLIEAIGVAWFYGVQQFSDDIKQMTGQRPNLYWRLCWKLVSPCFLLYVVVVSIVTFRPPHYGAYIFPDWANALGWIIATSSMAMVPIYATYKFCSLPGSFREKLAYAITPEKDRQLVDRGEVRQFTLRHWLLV
Each entry gets Not satisfied if its Mean Specific Binding (dpm) ± S.E.M., DAT stays under 20000 dpm, and Satisfied if its Mean Specific Binding (dpm) ± S.E.M., DAT is 20000 dpm or above.

IN: Identify whether the reported Mean Specific Binding (dpm) ± S.E.M., DAT of the following compound is 20000 dpm or greater: CN(C)CC1(c2ccc(Cl)c(Cl)c2)CCC(C)(O)CC1 (centres unmarked)
OUT: Satisfied

* * *

target: human dopamine reuptake transporter (Homo sapiens, UniProt Q01959); construct: expressed in transfected cells; host or cells: CHO-K1 or HEK293; assay: cell-based; conditions: recombinant human dopamine transporter (DAT); read-out: Human IC50 (nM) hDAT
Sequence (Q01959 whole entry): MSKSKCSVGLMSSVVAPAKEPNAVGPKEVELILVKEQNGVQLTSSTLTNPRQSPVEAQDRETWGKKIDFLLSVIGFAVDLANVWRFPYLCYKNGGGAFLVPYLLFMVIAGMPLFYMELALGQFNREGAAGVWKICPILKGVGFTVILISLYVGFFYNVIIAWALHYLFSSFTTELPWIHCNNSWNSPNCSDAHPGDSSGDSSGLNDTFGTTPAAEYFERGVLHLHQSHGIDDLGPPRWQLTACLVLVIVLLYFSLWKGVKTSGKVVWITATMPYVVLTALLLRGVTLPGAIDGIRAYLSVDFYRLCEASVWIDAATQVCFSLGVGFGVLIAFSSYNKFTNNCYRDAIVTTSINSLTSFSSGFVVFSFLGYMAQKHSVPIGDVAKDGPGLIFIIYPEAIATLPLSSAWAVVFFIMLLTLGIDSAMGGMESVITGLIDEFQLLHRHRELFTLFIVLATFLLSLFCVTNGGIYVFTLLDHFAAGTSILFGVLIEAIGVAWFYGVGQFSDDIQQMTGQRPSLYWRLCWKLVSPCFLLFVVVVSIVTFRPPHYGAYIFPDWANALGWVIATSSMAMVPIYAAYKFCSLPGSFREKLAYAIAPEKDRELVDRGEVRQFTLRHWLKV
In this section, each of the molecules is paired with its reported IC50.
Give the value, in units of nM, as a plain number.

Guide cases for IC50, answers given:
CN(C)CC1(c2ccc3ccccc3c2)CCC(F)CC1 (centres unmarked) [Compound 235] ... 92
CN(C)CC1(c2ccc(Cl)c(Cl)c2)CCCC(F)(F)C1 (single isomer, unassigned) [206 E1] ... 59

GET /value?item= CNCC1(c2ccc3ccccc3c2)CCC(F)CC1 (centres unmarked) [Compound 232] &field=IC50 returns 25

GET /value?item= CCC1(O)CCC(CN)(c2ccc(Cl)c(Cl)c2)CC1 (centres unmarked) [Compound 278] &field=IC50 returns 3190

* * *

target: human serotonin reuptake transporter (Homo sapiens, UniProt P31645); assay: cell-based; conditions: recombinant human serotonin transporter (SERT); read-out: Human IC50 (nM) hSERT
Sequence (P31645 whole entry): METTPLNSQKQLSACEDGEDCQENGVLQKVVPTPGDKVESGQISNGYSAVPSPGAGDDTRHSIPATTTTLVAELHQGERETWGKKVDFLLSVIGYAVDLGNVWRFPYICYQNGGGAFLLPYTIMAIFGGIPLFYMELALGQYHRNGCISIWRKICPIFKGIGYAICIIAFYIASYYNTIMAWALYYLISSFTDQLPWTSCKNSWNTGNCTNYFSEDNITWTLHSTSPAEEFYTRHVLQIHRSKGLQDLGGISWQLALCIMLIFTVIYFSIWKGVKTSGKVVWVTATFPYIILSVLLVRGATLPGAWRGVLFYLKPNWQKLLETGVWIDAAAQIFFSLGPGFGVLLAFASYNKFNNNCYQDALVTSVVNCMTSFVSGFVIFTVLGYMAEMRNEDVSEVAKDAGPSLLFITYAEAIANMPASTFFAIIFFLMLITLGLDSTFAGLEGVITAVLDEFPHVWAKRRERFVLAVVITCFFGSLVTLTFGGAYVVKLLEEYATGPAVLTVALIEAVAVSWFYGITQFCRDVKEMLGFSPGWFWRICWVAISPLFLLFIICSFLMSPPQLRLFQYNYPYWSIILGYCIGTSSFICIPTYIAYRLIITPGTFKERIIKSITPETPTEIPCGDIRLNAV
// classify: if (IC50 < 1000 nM) 1 else -1

Please review the following examples before continuing.
CC(N)C1(c2ccc(-c3ccco3)cc2)CCCCC1 (single isomer, unassigned) [22 E2] ... 1
COC1CCC(CN)(c2ccc(Cl)c(Cl)c2)CC1 (stereo not shown) [Compound 255] ... -1
CN(C)CC1(c2ccc3ccccc3c2)CCC(O)(CF)CC1 (stereo not shown) [Compound 244] ... 1

IN: Please check: IC50 for OC1Cc2ccccc2C1NCC1(c2ccc(Cl)c(Cl)c2)CCCCC1 (racemic) [Compound 113] , strictly under 1000 nM or not?
OUT: -1

IN: Please check: IC50 for NCC1(c2ccc(Cl)c(Cl)c2)CCC1 [Compound 1] , strictly under 1000 nM or not?
OUT: -1

IN: Please check: IC50 for CNCC1(c2ccc3ccccc3c2)CCC(C)(O)CC1 (stereo not shown) [Compound 222] , strictly under 1000 nM or not?
OUT: 1

IN: Please check: IC50 for CC1(O)CCC(CN)(c2ccc(Cl)c(Cl)c2)CC1 (stereo not shown) [Compound 275] , strictly under 1000 nM or not?
OUT: -1

IN: Please check: IC50 for CN(C)CC1(c2ccc(F)c3ccccc23)CCCCC1 [Compound 70] , strictly under 1000 nM or not?
OUT: 1

IN: Please check: IC50 for CSc1ccc(C2(CN(C)C)CCCCC2)cc1 [Compound 52] , strictly under 1000 nM or not?
OUT: 1

IN: Please check: IC50 for CN(C)C[C@]1(c2ccc3ccccc3c2)CC[C@](C)(O)CC1 [Compound 225] , strictly under 1000 nM or not?
OUT: 1
